tested system: Estrogen receptor (Homo sapiens) (UniProt P03372)
Sequence (P03372 whole entry, looked up): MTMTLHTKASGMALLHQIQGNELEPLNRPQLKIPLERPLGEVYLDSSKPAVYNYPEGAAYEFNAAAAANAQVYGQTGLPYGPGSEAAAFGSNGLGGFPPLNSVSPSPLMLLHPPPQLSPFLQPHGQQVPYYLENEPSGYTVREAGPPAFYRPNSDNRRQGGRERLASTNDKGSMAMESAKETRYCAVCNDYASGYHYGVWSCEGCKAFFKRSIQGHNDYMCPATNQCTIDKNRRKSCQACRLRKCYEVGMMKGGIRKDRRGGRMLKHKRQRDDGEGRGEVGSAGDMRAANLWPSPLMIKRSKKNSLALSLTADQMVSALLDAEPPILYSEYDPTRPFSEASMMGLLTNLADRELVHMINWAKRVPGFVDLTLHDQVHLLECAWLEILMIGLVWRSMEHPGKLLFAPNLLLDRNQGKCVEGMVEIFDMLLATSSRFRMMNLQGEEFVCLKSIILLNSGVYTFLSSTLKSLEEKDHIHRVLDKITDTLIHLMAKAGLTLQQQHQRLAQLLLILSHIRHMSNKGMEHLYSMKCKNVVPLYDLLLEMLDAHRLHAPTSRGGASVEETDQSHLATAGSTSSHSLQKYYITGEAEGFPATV
assay remarks: qHTS assay to identify small molecule agonists of the estrogen receptor alpha (ER-alpha) signaling pathway in the presence of an antagonist (AID 1259383); also: top concentration of the series differs between compounds; nearly all actives have a fitted effect of over 15% in size
particulars: VM7Luc4E2 cells, ERE-luciferase, +ICI-182,780, 22 h; series mostly up to 92.4 µM
Calls of active or inactive are those of the source. Calls follow the shape of the full dose curve.
metric name: outcome

Record excerpt, results attached:
- chemical smiles: "C=CC(=O)OCC(CO)(COCC(COC(=O)C=C)(COC(=O)C=C)COC(=O)C=C)COC(=O)C=C"
  tested system: "Estrogen receptor (Homo sapiens) (UniProt P03372)"
  outcome: "inactive"
- chemical smiles: "COc1cccc2c1C(=O)c1c(O)c3c(c(O)c1C2=O)C[C@@](O)(C(=O)CO)C[C@@H]3O[C@H]1C[C@H](N)[C@H](O[C@@H]2CCCCO2)[C@H](C)O1"
  tested system: "Estrogen receptor (Homo sapiens) (UniProt P03372)"
  outcome: "inactive"
- chemical smiles: "CCCCN1C(=O)[C@@H]([C@H](O)C2CCCCC2)NC(=O)C12CCN(Cc1ccc(Oc3ccc(C(=O)O)cc3)cc1)CC2"
  tested system: "Estrogen receptor (Homo sapiens) (UniProt P03372)"
  outcome: "inactive"
- chemical smiles: "CCN(CCC#N)c1ccc(N=Nc2c(Cl)cc([N+](=O)[O-])cc2Cl)cc1"
  tested system: "Estrogen receptor (Homo sapiens) (UniProt P03372)"
  outcome: "inactive"
- chemical smiles: "COc1cc(-c2nc(NC(=O)c3cc4cc(C)cc(C)c4n3CC(=O)O)sc2CCC2CCCCC2)c(OC)cc1Cl"
  tested system: "Estrogen receptor (Homo sapiens) (UniProt P03372)"
  outcome: "inactive"
- chemical smiles: "CN(C)c1ccc(SC#N)cc1"
  tested system: "Estrogen receptor (Homo sapiens) (UniProt P03372)"
  outcome: "inactive"
- chemical smiles: "CC(=O)SC[C@@H](Cc1ccccc1)C(=O)NCC(=O)OCc1ccccc1"
  tested system: "Estrogen receptor (Homo sapiens) (UniProt P03372)"
  outcome: "inactive"
- chemical smiles: "CC[C@@]1(O)C(=O)OCc2c1cc1n(c2=O)Cc2cc3c(CN(C)C)c(O)ccc3nc2-1"
  tested system: "Estrogen receptor (Homo sapiens) (UniProt P03372)"
  outcome: "inactive"

For the next question, use this compound.
Measured outcome of "Nc1ccc(N)c2ccccc12" : inactive

* * *

assay remarks: qHTS assay to identify small molecule antagonists of the sonic hedgehog signaling (Shh) pathway - cell viability counter screen (AID 1259367); also: nearly all actives have a fitted effect of over 55% in size
particulars: NIH/3T3 Gli1-Luc viability, CellTiter-Fluor, 24 h; series mostly up to 42.5 µM
Excerpt: National Center for Advancing Translational Sciences [NCATS] NIH Chemical Genomics Center [NCGC] U.S. Environmental Protection Agency [EPA] National Institutes of Environmental Health Sciences [NIEHS] National Toxicology Program [NTP] U.S. Food and Drug Administration [FDA] The sonic hedgehog (Shh) pathway is essential for normal embryonic development. Dysregulation of the Shh pathway can cause severe developmental defects in organs. […]
Records with an inconclusive call do not appear. Calls of active or inactive are those of the source. Calls follow the shape of the dose curve; as a rule, active = well fitted cell-killing curve with a large enough effect in the repeat runs; inconclusive = weak or mixed curves, or effect the other way; inactive = no such curve, though single readings can be large or run the other way.
The categories you may choose from are YES (active), NO (inactive)

Some solved cases for reference:
- molecule: "N=C1N=C(N)c2cc3ccccc3cc21"
  class name: "YES"
- molecule: "CCCCc1oc2ccc(NS(C)(=O)=O)cc2c1C(=O)c1ccc(OCCCN(CCCC)CCCC)cc1"
  class name: "YES"
- molecule: "N#CC1(c2ccc(F)cc2)CCC(=O)CC1"
  class name: "NO"
- molecule: "O=C1CCCc2c1cc1ccc3cccc4ccc2c1c34"
  class name: "NO"
- molecule: "OCCCCCCCCCCCCBr"
  class name: "NO"

Prompt line: Field: outcome | Entry: "Nc1ccccc1O"
Response line: YES

Prompt line: Short answer needed: outcome of this test for "O=c1c(-c2ccccc2)c1-c1ccccc1" ?
Response line: YES

Prompt line: // outcome(item) with item = "CNC(=O)c1ccccc1"
Response line: NO

Prompt line: Hi, do you know how "Oc1cccc(-c2c3nc(c(-c4cccc(O)c4)c4ccc([nH]4)c(-c4cccc(O)c4)c4nc(c(-c5cccc(O)c5)c5ccc2[nH]5)CC4)C=C3)c1" came out in this test?
Response line: YES

Prompt line: Can you look up the reported call for "CCCC/C=C/CCCCO" for me?
Response line: NO

Prompt line: Returns: the outcome recorded for "CCCCN1CCCC[C@H]1C(=O)Nc1c(C)cccc1C" in this assay.
Response line: NO

Prompt line: In this assay, the call recorded for "Cc1onc(-c2ccccc2Cl)c1C(=O)N[C@@H]1C(=O)N2[C@@H]1SC(C)(C)[C@@H]2C(=O)O" was what?
Response line: NO

Prompt line: Assay outcome for "Oc1cccc2cc3cccc(O)c3c(O)c12" : what was it?
Response line: NO

Prompt line: Which outcome was assigned to "CCCCCCCC(=O)[O-].CCCCCCCC(=O)[O-].[Zn+2]" in this test?
Response line: NO

Prompt line: What outcome does the record of this test show for "C[C@H](CCC(=O)O)[C@H]1CC[C@H]2[C@@H]3CC[C@@H]4C[C@H](O)CC[C@]4(C)[C@H]3CC[C@]12C" ?
Response line: NO

Prompt line: Dear all, I need the recorded test outcome for "Cc1c(C)c2c(c(C)c1OC(=O)CCC(=O)O)CC[C@@](C)(CCC[C@H](C)CCC[C@H](C)CCCC(C)C)O2" , thank you.
Response line: NO

Prompt line: For this molecule, state the assay outcome: CC1=C(C(=O)OC(C)C)C(c2cccc([N+](=O)[O-])c2)C(C(=O)OC2CN(C(c3ccccc3)c3ccccc3)C2)=C(N)N1 (configuration not stated)
Response line: YES
